Each entry below carries its reported viability, T/C.
System: 616215-338-R-J1-PDC complex spheroid viability;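 note: spheroids exposed to compounds for one week before readout; percent viability relative to DMSO vehicle wells taken as 100%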
MEASUREMENT NOTES: Anticancer human tumor 616215-338-R-J1-PDC patient-derived colon adenocarcinoma cell line growth inhibition [POLQ]
TEST SETTINGS: second compound 0.1 µM; first compound 0.1 µM; stronger effect = lower value
Procedure: Multicellular complex tumor spheroid response to Polymerase (POL) inhibitors (novobiocin, ART-558, RP6685) in combination with a variety of drugs and investigational agents in selected tumor cell lines The POL inhibitors (novobiocin, ART-558, and RP6685) were evaluated both individually and in combination with standard of care and investigational anticancer small molecules within a complex spheroid model of solid tumors. . […]
ASSAY ENDPOINT: viability, T/C

COMPOUND: CCc1cc2c(N3CCc4c(cc(Cn5ccnc5)cc4-c4cn(C)nc4C(F)(F)F)C3=O)ccnc2c(OC)n1 + Cc1cccc(N(C)C(=O)C2C(O)CCN2c2nc(C)cc(C(F)(F)F)c2C#N)c1
ASSAY ENDPOINT: viability, T/C
ENDPOINT RESULT: 106%

COMPOUND: CCc1cc2c(N3CCc4c(cc(Cn5ccnc5)cc4-c4cn(C)nc4C(F)(F)F)C3=O)cc(C)nc2c(OC)n1 + Cc1cccc(N(C)C(=O)C2C(O)CCN2c2nc(C)cc(C(F)(F)F)c2C#N)c1
ASSAY ENDPOINT: viability, T/C
ENDPOINT RESULT: 104%

COMPOUND: Cn1ncnc1[C@H]1c2n[nH]c(=O)c3cc(F)cc(c23)N[C@@H]1c1ccc(F)cc1 + Nc1ccc(C#CCN(C(=O)Cc2ncc(C(F)(F)F)cc2C(F)(F)F)c2ccc(F)cc2)nn1
ASSAY ENDPOINT: viability, T/C
ENDPOINT RESULT: 77.6%

Data origin: PubChem BioAssay AID1963843
